Parameter: GEO mean difference. Scope: all listed entries.
# targetEntity: T1, canine OX40L, full length membrane form, expressed on HEK293 cells (canine)
# T1 construct: also called OX40L expressing HEK; HEK OX40L cells
# T1 chain: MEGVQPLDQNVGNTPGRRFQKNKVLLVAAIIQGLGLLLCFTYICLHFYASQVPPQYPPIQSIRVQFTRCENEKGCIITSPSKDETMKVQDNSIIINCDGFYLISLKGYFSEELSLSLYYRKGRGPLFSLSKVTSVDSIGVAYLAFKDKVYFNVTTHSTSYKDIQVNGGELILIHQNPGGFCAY
# procedureText: flow cytometry, OX40L HEK minus WT HEK

Some binders with recorded GEO mean difference:
PMX026 (antibody, V domains shown, also called PMX26) VH: EVHLVESGGDLVKPGGSLRLSCVASGFTFSSYHMSWVRQAPGKGLQWVAFINAGEISTNYADAVKGRFTISRDNAKNILYLQMNSLRAEDTAVYYCASGHIWIRPFDYWGQGTLVTVSS VL: SYVLTQLPSMSVTLRQTARITCEGDSIGRKRVNWYQQKLGQVPVLIIYDDDSRPSGIPERFSGANSGNTATLTISGALAEDEAEYYCQVWDSSNNWVFGEGTQLTVL; 1.36e+06
PMX034 (antibody, V domains shown, also called PMX34) VH: EVQLVESGGDLVKPGGSLRLSCVASGFTFSNYHMSWVRQAPGKGLQWVAYIVSGGSSTTYADAVKGRFTISRDNAKNTLYLQMTSLRAEDTAVYYCASDLVLLVGGADYWGQGTLVTVSS VL: SYELTQPPSVNVTLRETAHITCGGDSIGSKYVQWIQQNPGQAPVVIIYKDSNRPTGIPERFSGANSGNTATLTISGALAEDEADYYCQVGDSGTKAVFGGGTHLTVL; 1.36e+06
PMX053 (antibody, V domains shown, also called PMX53) VH: EVQLVESGGDLVKPAGSLRLSCVASGFTFSSYSMSWVRQAPEKGLQLVAGINSAGSSTYYTDAVKGRFTISRDNAKNTVYLQMNSLRAEDTAIYYCAKRWVFDYWGQGTLVTVSS VL: DIVMTQTPLSLSVSPGEPASISCKASQSLPHSLGNTYLYWFRQKPGQSPQRLIYKVSNRDPGVPDRFSGSGSGTDFTLRISRVEADDAGIYYCGQGIQDPFTFGQGTKLEIK; 3e+06
PMX038 (antibody, V domains shown, also called PMX38) VH: EVQLVESGGDLVKPGGSLRLSCVASGFTFSSYHMSWVRQAPGKGLQWVAYITSGGRTTSYADAVKGRFTISRDNAKNTLYLQMKSLRAEDTAVYYCARDLVLVLGGAEYWGQGTLVTVSS VL: SYELTQPPSVNVTLRETAHITCGGDSIGRKYVQWIQQNPGQAPVVIIYKDSNRPTGIPERFSGANSGNTATLTISGALAEDEADYYCQVGDSGSKAVFGGGTHLTVL; 1.53e+06

Below: the item to evaluate.
Look up GEO mean difference: PMX028 (antibody, V domains shown, also called PMX28) VH: EVQMVESGGDLVKPGGSLRLSCVASGFTFSDYHMSWVRQAPGKGLQWVAYITSGGSSTSYADAVKGRFTISRDNAKNTLYLQMNSLRAEDTAVYYCASDLVLVVGGGVYWGQGTLVTVSS VL: SYELTQPPSVNVTLRETAHITCGGDSIGSKYVQWIQQNPGQAPVVIIYKDSNRPTGIPERFSGANSGNTATLTISGALAEDEADYYCQVGDSGTKAVFGEGTQLTVL 1.02e+06
